- Tested on: DeltatarO mutant
- measurementProtocol: S. aureus survival, RN4220 and DeltatarO strains – OD600, teichoic acid synthesis inhibitors, primary screen (AID 463173)
- testConditions: S. aureus RN4220 wild type/DeltatarO growth, OD600, 18 h, stronger effect = lower value, screened at 18.75 µg/mL (by protocol)
Among all 52,000 compounds or so, about 4,300 (8.3%) were called active. The full list was thinned out, with actives kept by preference.
reportedProperty: survival (%)
Your answer should be a plain number; it is taken to be in %.

Some compounds with known survival results, for comparison:
1) CCN(C(=O)Cn1c(SCC(=O)NCc2ccccc2)nc2ccccc21)c1cccc(C)c1 ... 65
2) COc1cc(OC)c(NC(=O)CSC2=Nc3ccccc3N=C(c3ccc(F)cc3)C2)cc1Cl ... 65
3) O=C(CSc1oc(-c2ccc(F)cc2)nc1S(=O)(=O)c1ccccc1)NC1CCCCC1 ... 61

Give survival for "COc1ccccc1NC(=O)C1CCN(c2cnccn2)CC1"
54

Determine its reported survival: "O=C(CSc1oc(-c2ccc(F)cc2)nc1S(=O)(=O)c1ccc(Br)cc1)NC1CCCCC1"
64

Could you please provide reported survival for COc1ccc(C2C=C(c3ccc(C)cc3)Nc3c(C(=O)Nc4ccccc4)cnn32)cc1 (stereo not drawn) ? Thanks!
53

State its survival: "CC(C)c1ccccc1NC(=O)CN(c1ccccc1)S(=O)(=O)N(C)C"
81

----------
- Tested on: DeltatarO mutant
- measurementProtocol: S. aureus survival, RN4220 and DeltatarO strains – OD600, teichoic acid synthesis inhibitors, primary screen (AID 463173)
- testConditions: S. aureus RN4220 wild type/DeltatarO growth, OD600, 18 h, stronger effect = lower value, screened at 18.75 µg/mL (by protocol)
The whole screen tested about 52,000 compounds, of which about 4,300 (8.3%) were called active. Many of the other results were omitted from the sample, so actives are more common in it than they were.
Decision: survival beneath 70% gives yes; survival meeting or exceeding 70% gives no.

// known answers, use as guide
1. CC(C)c1ccc(C2c3c(-c4ccccc4O)n[nH]c3C(=O)N2CCc2ccccc2)cc1 (configuration not stated) ... yes
2. Cc1ccc(NC(=O)CN2C(=O)CCn3nc(-c4cccn4C)cc32)c(Cl)c1 ... no
3. Cc1cc(C)c(Cn2c(=O)n(-c3ccccc3Cl)c(=O)c3c(C)c(C(=O)N(C)C)sc32)c(C)c1 ... no

For this compound, is survival lower than 70%? "CN1C(=O)Cc2cc(S(=O)(=O)CCC(=O)Nc3ccccc3)ccc21"
no

Criterion: survival strictly below 70%. Is it met by "Cc1ccc(Cl)cc1NC(=O)Cn1c(=O)oc2cc(S(=O)(=O)N3CCCC3)ccc21" ?
no

Input "Cc1ccc(C)c(Cn2c(=O)n(-c3ccc(F)cc3)c(=O)c3sc4ccccc4c32)c1" ; condition: survival strictly below 70%. Does it hold?
no

In plain terms, does Cc1ccc(C2c3c(-c4ccccc4O)n[nH]c3C(=O)N2CCc2ccccc2)cc1 (configuration not stated) come in under 70% for survival?
yes

Dear reviewer, please state whether "Cc1ccc2nc(-c3ccccn3)c(Nc3ccccc3C)n2c1" has survival strictly beneath 70%.
yes

----------
- Tested on: DeltatarO mutant
- measurementProtocol: S. aureus survival, RN4220 and DeltatarO strains – OD600, teichoic acid synthesis inhibitors, primary screen (AID 463173)
- testConditions: S. aureus RN4220 wild type/DeltatarO growth, OD600, 18 h, screened at 18.75 µg/mL (by protocol)
The campaign covered roughly 52,000 compounds. About 4,300 (8.3%) were called active. No stated cut-off is given here; in the data, active means survival mostly below about 52% (no sharp cut-off); inactive means mostly above about 56%. What follows is part of a selection rich in actives, with near analogues and random picks from the rest.
Please reply with one of these outcomes: active, inactive

Reference set, count: 4
1. O=C(CSc1nc(=O)n(Cc2ccco2)c2c1CCC2)NCc1ccc(Cl)cc1 ... inactive
2. CCc1ccc(/C=C(/C#N)c2nc(-c3ccc(C)cc3)cs2)cc1 ... active
3. C=CCn1cc(/C=C(/C#N)C(=O)OCC)c2ccccc21 ... inactive
4. Cc1ccccc1-c1noc(-c2ccc(N3CCCC3)c([N+](=O)[O-])c2)n1 ... inactive

Query compound follows.
Per the assay record, what outcome was assigned to CCCCN(C)CC(O)Cn1cc(/C=C/C(=O)c2ccc(C)cc2)c2ccccc21 (stereo not given) ?
active
